- experimental-target: glucocerebrosidase (Gcase) (Homo sapiens)
- assay-name: Glucocerebrosidase (Gcase) activation assay, 4-methylumbelliferyl-beta-D-glucopyranoside substrate, with saposin C
- Format: biochemical
- condition-details: test compound at 0.1 μM; read-out: Percent Gcase Activation, 0.1 μM Test Compound
property-measured: activation at 0.1 µM

Cc1cc(-c2ccns2)nc2c(C(=O)N[C@@H](C3CC3)C(F)(F)F)ncn12 [IV-8]    10 to 20%
Cc1cc(-c2ccc3c(c2)OCO3)nc2c(C(=O)NC(C3CC3)C(F)(F)F)ncn12 (centres unmarked) [IV-75]    > 20%
Cc1cc(-c2ccc(C#N)o2)nc2c(C(=O)N[C@@H](C3CC3)C(F)(F)F)ncn12 [IV-35]    > 20%

Return reported activation at 0.1 µM for target or system glucocerebrosidase (Gcase) (Homo sapiens), item Cc1cc(-c2cccc(OC(F)(F)F)n2)nc2c(C(=O)N[C@H](C)C3CC3)ncn12 [IV-12] .
< 10%

Return reported activation at 0.1 µM for target or system glucocerebrosidase (Gcase) (Homo sapiens), item COc1cc(F)cc(-c2cc(C)n3cnc(C(=O)N[C@@H](C)C(F)(F)F)c3n2)c1 [IV-59] .
> 20%

Return reported activation at 0.1 µM for target or system glucocerebrosidase (Gcase) (Homo sapiens), item CCc1cc(N2CCC(C)(C)C2=O)nc2c(C(=O)NC(C3CC3)C(F)(F)F)ncn12 (centres unmarked) [IV-107] .
10 to 20%

Return reported activation at 0.1 µM for target or system glucocerebrosidase (Gcase) (Homo sapiens), item COc1ccc(F)c(-c2cc(C)n3cnc(C(=O)NC(C)(C)C)c3n2)c1 [IV-103] .
10 to 20%

Return reported activation at 0.1 µM for target or system glucocerebrosidase (Gcase) (Homo sapiens), item Cc1cc(-c2cccc(C#N)c2F)nc2c(C(=O)NC(C3CC3)C(F)(F)F)ncn12 (centres unmarked) [IV-36] .
> 20%

====

- experimental-target: glucocerebrosidase (Gcase) (Homo sapiens, UniProt P04062)
- Sequence (P04062 40-536): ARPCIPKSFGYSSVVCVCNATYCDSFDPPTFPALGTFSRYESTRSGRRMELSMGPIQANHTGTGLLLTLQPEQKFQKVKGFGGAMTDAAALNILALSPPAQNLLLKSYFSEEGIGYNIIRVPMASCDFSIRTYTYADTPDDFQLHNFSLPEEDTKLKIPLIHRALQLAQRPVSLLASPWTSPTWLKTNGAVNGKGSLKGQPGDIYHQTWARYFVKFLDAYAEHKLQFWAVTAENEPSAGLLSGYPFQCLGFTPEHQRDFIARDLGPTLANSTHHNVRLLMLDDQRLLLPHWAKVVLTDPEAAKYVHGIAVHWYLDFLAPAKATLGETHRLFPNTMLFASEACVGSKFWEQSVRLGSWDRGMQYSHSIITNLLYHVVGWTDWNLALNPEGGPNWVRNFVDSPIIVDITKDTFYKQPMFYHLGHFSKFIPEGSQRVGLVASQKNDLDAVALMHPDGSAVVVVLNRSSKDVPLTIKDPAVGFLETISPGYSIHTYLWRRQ
- assay-name: Glucocerebrosidase (Gcase) activation assay, 4-methylumbelliferyl-beta-D-glucopyranoside substrate, with saposin C
- Assay type: biochemical
- condition-details: test compound at 0.1 μM; read-out: Percent Gcase Activation, 0.1 μM Test Compound
property-measured: activation at 0.1 µM

Example entries begin here.
COc1cccc(-c2cc(C)n3cnc(C(=O)N[C@@H](C)C(F)(F)F)c3n2)c1    > 20%
Cc1cc(-c2ccoc2)nc2c(C(=O)NC(C3CC3)C(F)(F)F)ncn12 (stereo not drawn)    > 20%

Return reported activation at 0.1 µM for target or system glucocerebrosidase (Gcase) (Homo sapiens, UniProt P04062), item Cc1cc(-c2cc(F)ccc2C#N)nc2c(C(=O)NC(C3CC3)C(F)(F)F)ncn12 (stereo not drawn) .
> 20%

Return reported activation at 0.1 µM for target or system glucocerebrosidase (Gcase) (Homo sapiens, UniProt P04062), item Cc1cc(-c2sccc2C#N)nc2c(C(=O)NC(C3CC3)C(F)(F)F)ncn12 (stereo not drawn) .
> 20%

Return reported activation at 0.1 µM for target or system glucocerebrosidase (Gcase) (Homo sapiens, UniProt P04062), item Cc1cc(-c2cccc3ncoc23)nc2c(C(=O)N[C@@H](C3CC3)C(F)(F)F)ncn12 .
> 20%

Return reported activation at 0.1 µM for target or system glucocerebrosidase (Gcase) (Homo sapiens, UniProt P04062), item Cc1cc(-c2ccc3nncn3c2)nc2c(C(=O)NC(C3CC3)C(F)(F)F)ncn12 (stereo not drawn) .
< 10%

Return reported activation at 0.1 µM for target or system glucocerebrosidase (Gcase) (Homo sapiens, UniProt P04062), item Cc1cc(-c2cc(F)cc(C#N)c2)nc2c(C(=O)NC(C3CC3)C(F)(F)F)ncn12 (stereo not drawn) .
> 20%

Return reported activation at 0.1 µM for target or system glucocerebrosidase (Gcase) (Homo sapiens, UniProt P04062), item Cc1cc(-n2ccc(Cl)n2)nc2c(C(=O)NC(C)C(F)(F)F)ncn12 (stereo not drawn) .
< 10%

Return reported activation at 0.1 µM for target or system glucocerebrosidase (Gcase) (Homo sapiens, UniProt P04062), item Cc1nscc1-c1cc(C)n2cnc(C(=O)N[C@@H](C3CC3)C(F)(F)F)c2n1 .
10 to 20%

Return reported activation at 0.1 µM for target or system glucocerebrosidase (Gcase) (Homo sapiens, UniProt P04062), item COc1cc(F)cc(-c2cc(C)n3cnc(C(=O)N[C@@H](C)C4CC4)c3n2)c1 .
> 20%
